- Measured On: Gag-Pol polyprotein [588-1127,Y768C]/[588-1147,Y768C] (Human immunodeficiency virus 1, UniProt P04585, Y768C)
- Construct: 588-1127; 588-1147
- Experiment: HIV-1 RT Assay
Readout Name: pIC50
Note on units: pIC50 is unitless, being -log10 of a concentration expressed in mol/L.

// worked examples, pIC50 included
Cc1c(C(C)C)s/c(=N\S(=O)(=O)c2cc(C#N)ccc2C#N)n1C [thiazolidenebenzenesulfonamide deriv.]    6.33
CC(C)c1s/c(=N\S(=O)(=O)c2cc(Cl)ccc2O)n(C)c1Cl    7.68
Cc1c(C(C)C)s/c(=N\S(=O)(=O)c2cc(Br)ccc2C#N)n1C    6.59

# context switch: different compound, same pIC50
Prompt: Can you look up the measured pIC50 of "CC(C)c1s/c(=N\S(=O)(=O)c2cc(Br)ccc2O)n(C)c1Cl" for me?
Response: 7.89

====

- Measured On: Gag-Pol polyprotein [588-1027,K690N]/[588-1147,K690N] (Human immunodeficiency virus 1, UniProt P04585, K690N)
- Construct: 588-1027; 588-1147
- Experiment: HIV-1 RT Assay
Readout Name: IC50

Worked examples, 2 molecules total:
Cc1c(C(C)C)s/c(=N\S(=O)(=O)c2cc(Cl)ccc2C#N)n1C    5.9 µM
CC(C)c1s/c(=N\S(=O)(=O)c2cc(C#N)ccc2C#N)n(C)c1Cl    3 µM

Prompt: What measured IC50 goes with "Cc1c(C(C)(C)C)s/c(=N\S(=O)(=O)c2ccc(O)cc2)n1C" ?
Response: > 10 µM

Prompt: Would you kindly repeat that for "Cc1c(C(C)(C)C)s/c(=N\S(=O)(=O)c2ccccc2O)n1C" ?
Response: 30 µM

Prompt: Query "CC(C)c1s/c(=N\S(=O)(=O)c2cc(Br)ccc2O)n(C)c1Cl" next
Response: 0.043 µM

Prompt: Another molecule to check: "COC(=O)c1ccc(Cl)cc1S(=O)(=O)/N=c1\sc(C(C)(C)C)c(C)n1C"
Response: > 10 µM

Prompt: "Cc1c(C(C)(C)C)s/c(=N\S(=O)(=O)c2cccc(O)c2)n1C" , same question.
Response: > 50 µM

====

- Measured On: Gag-Pol polyprotein [588-1027,K690N]/[588-1147,K690N] (Human immunodeficiency virus 1, UniProt P04585, K690N)
- Construct: 588-1027; 588-1147
- Experiment: HIV-1 RT Assay
- Stated Conditions: pH 8.4; 37 °C
Readout Name: IC50

Sample answers from the record:
Cc1c(C(C)(C)C)s/c(=N\S(=O)(=O)c2ccc(Cl)cc2)n1C    > 10 µM
COc1ccccc1S(=O)(=O)/N=c1\sc(C(C)(C)C)c(C)n1C    > 50 µM
Cc1c(C(C)(C)C)s/c(=N\S(=O)(=O)c2ccccc2Cl)n1C    > 10 µM
Cc1c(C(C)(C)C)s/c(=N\S(=O)(=O)c2ccc([N+](=O)[O-])cc2)n1C    > 10 µM
Cc1c(C(C)(C)C)s/c(=N\S(=O)(=O)c2ccccc2[N+](=O)[O-])n1C    > 50 µM

Below: the item to evaluate.
Prompt: So what's the measured IC50 for this one? "Cc1c(C(C)(C)C)s/c(=N\S(=O)(=O)c2cccc(Cl)c2)n1C"
Response: 11 µM
